tested.target: T1, orthogonal hCD122 receptor (hoRb), hCD122 with H133D and Y134F (human, UniProt P14784 27-550)
T1 sequence: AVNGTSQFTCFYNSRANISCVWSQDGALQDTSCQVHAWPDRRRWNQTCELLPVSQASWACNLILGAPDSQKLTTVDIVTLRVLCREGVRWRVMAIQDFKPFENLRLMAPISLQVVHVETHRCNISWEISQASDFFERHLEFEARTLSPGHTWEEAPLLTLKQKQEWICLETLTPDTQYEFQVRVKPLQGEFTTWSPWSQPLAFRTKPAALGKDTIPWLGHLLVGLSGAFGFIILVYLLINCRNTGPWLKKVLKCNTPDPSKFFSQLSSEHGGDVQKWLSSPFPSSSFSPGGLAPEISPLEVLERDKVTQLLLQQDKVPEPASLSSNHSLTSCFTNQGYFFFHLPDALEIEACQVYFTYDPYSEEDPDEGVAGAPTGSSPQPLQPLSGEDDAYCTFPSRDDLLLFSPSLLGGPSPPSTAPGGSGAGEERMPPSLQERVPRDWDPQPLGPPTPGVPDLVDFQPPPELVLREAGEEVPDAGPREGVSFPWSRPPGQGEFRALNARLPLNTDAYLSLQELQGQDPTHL
assay.method.text: cell-based or functional assay
endpoint.name: 3F8 Ortho Proliferation Signal 1:50 (cts/min)

Below are worked cases with known answers.
L18I, SQVLKA (ligand) APTSSSTKKTQLQLSQLIVLLKAILNGINNYKNPKLTRMLTFKFYMPKKATELKHLQCLEEELKPLEEVLNLAQSKNFHLRPRDLISNINVIVLELKGSETTFMCEYADETATIVEFLNRWITFCQSIISTLT
19400
T3E, SQVLKA (ligand) APESSSTKKTQLQLSQLLVLLKAILNGINNYKNPKLTRMLTFKFYMPKKATELKHLQCLEEELKPLEEVLNLAQSKNFHLRPRDLISNINVIVLELKGSETTFMCEYADETATIVEFLNRWITFCQSIISTLT
18900

I = SQVLDA (ligand) APTSSSTKKTQLQLSQLLVLLDAILNGINNYKNPKLTRMLTFKFYMPKKATELKHLQCLEEELKPLEEVLNLAQSKNFHLRPRDLISNINVIVLELKGSETTFMCEYADETATIVEFLNRWITFCQSIISTLT
II = L18W, SQVLKA (ligand) APTSSSTKKTQLQLSQLWVLLKAILNGINNYKNPKLTRMLTFKFYMPKKATELKHLQCLEEELKPLEEVLNLAQSKNFHLRPRDLISNINVIVLELKGSETTFMCEYADETATIVEFLNRWITFCQSIISTLT
Qu. Form: Entry with minimum 3F8 Ortho Proliferation Signal 1:50 (choose one): I / II To answer, give the label that identifies your chosen option.
Ans. II

These data points were gathered from patent US20210196796A1.
